Quick list: DC50 per entry.
# TEST_TARGET: EGFR L858R (BaF3-L858R cells) (Homo sapiens, UniProt P00533, L858R)
# Construct: host or cells: BaF3
# Sequence (P00533 25-1210 L858R): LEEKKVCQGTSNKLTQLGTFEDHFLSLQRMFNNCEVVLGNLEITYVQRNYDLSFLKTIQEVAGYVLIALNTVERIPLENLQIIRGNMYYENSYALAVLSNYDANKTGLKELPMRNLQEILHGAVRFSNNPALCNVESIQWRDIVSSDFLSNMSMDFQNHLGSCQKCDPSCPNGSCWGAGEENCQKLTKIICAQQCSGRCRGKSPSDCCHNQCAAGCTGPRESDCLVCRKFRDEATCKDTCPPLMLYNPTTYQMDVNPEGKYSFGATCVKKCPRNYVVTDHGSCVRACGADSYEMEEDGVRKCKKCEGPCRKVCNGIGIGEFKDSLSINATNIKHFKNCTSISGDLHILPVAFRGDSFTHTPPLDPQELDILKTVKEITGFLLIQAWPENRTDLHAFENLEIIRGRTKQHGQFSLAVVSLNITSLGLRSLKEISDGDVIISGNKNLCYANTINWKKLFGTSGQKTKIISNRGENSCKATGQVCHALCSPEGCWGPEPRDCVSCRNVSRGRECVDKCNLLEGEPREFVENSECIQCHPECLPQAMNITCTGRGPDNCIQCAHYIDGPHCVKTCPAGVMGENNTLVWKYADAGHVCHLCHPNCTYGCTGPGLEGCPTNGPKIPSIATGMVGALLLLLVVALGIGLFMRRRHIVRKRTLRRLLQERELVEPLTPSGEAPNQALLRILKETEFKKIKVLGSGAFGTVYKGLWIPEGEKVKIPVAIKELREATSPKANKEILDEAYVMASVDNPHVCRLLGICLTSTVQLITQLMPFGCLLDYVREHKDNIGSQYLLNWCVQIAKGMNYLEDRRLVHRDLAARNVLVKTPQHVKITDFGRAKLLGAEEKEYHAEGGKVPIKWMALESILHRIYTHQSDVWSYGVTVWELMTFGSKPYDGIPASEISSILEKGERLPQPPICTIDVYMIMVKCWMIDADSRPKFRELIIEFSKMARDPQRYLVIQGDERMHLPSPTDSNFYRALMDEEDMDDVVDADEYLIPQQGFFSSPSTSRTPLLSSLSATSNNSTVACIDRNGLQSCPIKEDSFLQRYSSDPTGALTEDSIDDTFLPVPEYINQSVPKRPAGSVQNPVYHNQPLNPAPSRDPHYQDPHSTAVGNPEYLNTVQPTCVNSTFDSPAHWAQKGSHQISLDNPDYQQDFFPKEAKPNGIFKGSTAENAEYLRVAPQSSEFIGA
# ASSAY_COMMENT: Cell degradation of EGFR, HTRF assay, BaF3-L858R cells
# Format: cell-based
# EXPERIMENTAL_CONDITIONS: 16 h treatment, EGFR degradation
# Description: BaF3-L858R (abbv. L858R) cell were purchased from Kangyuan Bochuang Biotechnology (Beijing) Co., Ltd. H1975-#8 and BaF3-L858R cells are treated with compounds diluted in 0.1% DMSO cell culture medium on day 2, incubate for 16 h, 37° C., 5% CO2. the final concentration of compounds in all assay is start with 10 uM, 5-fold dilution, total 8 doses were included. […] High control=Cell group with added DMSO and without compound, indicating microplate readings without EGFR degradation; […]
READOUT_TYPE: DC50 (nM)

| COMPOUND | TEST_TARGET | OBSERVED_RESULT |
| --- | --- | --- |
| COC[C@@H]1CN(c2ccc3c(c2)N2C[C@@H]4CCC(COc5c(c(C)nn5C)-c5cc(cc(C)n5)C(=O)/N=C/2N3)C4)CCN1C1CN(C2CCN(c3cc(F)c([C@H]4CCC(=O)NC4=O)c(F)c3)CC2)C1 | EGFR L858R (BaF3-L858R cells) (Homo sapiens, UniProt P00533, L858R) | 1.06 |
| COC[C@H]1CN(c2ccc3c(c2)N2C[C@@H]4CC[C@H](COc5c(c(C)nn5C)-c5cc(cc(C)n5)C(=O)/N=C/2N3)C4)CCN1C1CCN(c2ccc(OC3CCC(=O)NC3=O)cc2C)CC1 (some centres unmarked) | EGFR L858R (BaF3-L858R cells) (Homo sapiens, UniProt P00533, L858R) | 3.04 |
| Cc1cc2cc(n1)-c1cnn(C)c1OC[C@H]1CCC(C1)CN1/C(=N/C2=O)Nc2cc(C)c(N3CCN([C@@H]4CCN(c5ccc(C6CCC(=O)NC6=O)nc5C)C[C@@H]4F)CC3)cc21 (some centres unmarked) | EGFR L858R (BaF3-L858R cells) (Homo sapiens, UniProt P00533, L858R) | 0.59 |
| Cc1cc2cc(n1)-c1cnn(C)c1OC[C@H]1CCC(C1)CN1/C(=N/C2=O)Nc2ccc(N3CCN([C@@H]4CCN(c5ccc(C6CCC(=O)NC6=O)nc5C)CC4(F)F)CC3)cc21 (some centres unmarked) | EGFR L858R (BaF3-L858R cells) (Homo sapiens, UniProt P00533, L858R) | 3.68 |
| Cc1cc2cc(n1)-c1cnn(C)c1OC[C@H]1CC[C@H](C1)CN1/C(=N/C2=O)Nc2ccc(N3CCN(C4CCN(c5ccc(OC6CCC(=O)NC6=O)cc5)CC4)CC3)cc21 (some centres unmarked) | EGFR L858R (BaF3-L858R cells) (Homo sapiens, UniProt P00533, L858R) | 3.84 |

* * *

# TEST_TARGET: p-EGFR L858R (BaF3-L858R cells) (Homo sapiens, UniProt P00533, L858R)
# Sequence (P00533 25-1210 L858R): as above
# ASSAY_COMMENT: Cell p-EGFR inhibition assay, HTRF, BaF3-L858R cells
# EXPERIMENTAL_CONDITIONS: 16 h treatment, pEGFR inhibition
Just a reminder that ties go to false: only IC50 strictly below 10 nM counts as true.

| MOLECULE | GROUP |
| --- | --- |
| Cc1cc2cc(n1)-c1cnn(C)c1OC[C@H]1CC[C@H](C1)CN1/C(=N/C2=O)Nc2ccc(N3CCN(CC4CN(c5ccc6c(c5)CN(C5CCC(=O)NC5=O)C6=O)C4)CC3)cc21 (some centres unmarked) [Example 35] | true |
| Cc1cc2cc(n1)-c1cnn(CCO)c1OC[C@H]1CCC(C1)CN1/C(=N/C2=O)Nc2ccc(N3CCN(C4CCN(c5cc(F)c([C@H]6CCC(=O)NC6=O)c(F)c5)CC4)CC3)cc21 [Example 122] | false |
| Cc1cc2cc(n1)-c1c(C)nn(C)c1OC[C@H]1CC[C@H](C1)CN1/C(=N/C2=O)Nc2ccc(N3CCN(CCC4CCN(c5cc(F)c([C@H]6CCC(=O)NC6=O)c(F)c5)CC4)CC3)cc21 [Example 183] | true |
| COC[C@@H]1CN(c2ccc3c(c2)N2CC4CC[C@H](COc5c(c(C(F)(F)F)nn5C)-c5cc(cc(C)n5)C(=O)/N=C/2N3)C4)CCN1C1CCN(c2cc(F)c([C@H]3CCC(=O)NC3=O)c(F)c2)CC1 [Example 77] | false |
| COC[C@@H]1CN(c2cc3c(cc2F)N/C2=N\C(=O)c4cc(C)nc(c4)-c4c(C)nn(C)c4OC[C@H]4CC[C@H](C4)CN23)CCN1C1CCN(c2cc(F)c([C@H]3CCC(=O)NC3=O)c(F)c2)CC1 [Example 169] | true |
